System: HOP-92 NSCLC
Experiment: NCI-60 one-dose screen, 48 h
Settings: 10 µM unless noted
Method: Growth inhibition of the HOP-92 human Non-Small Cell Lung tumor cell line is measured as a screen for anti-cancer activity. Cells are grown in 96 well plates and exposed to the test compound for 48 hours. Compounds are tested at a single concentration, which is 10^-5 M for most compounds. The reported endpoint is percent growth (GI% or GIPRCNT), where numbers from 0 - 100% represent growth inhibition, and numbers from -100% - 0 represent cell death. […]
About 83,000 compounds went through this panel and 20% of them were active in at least one assay; those are over-represented in the sample as a whole. Activity calls are given as the source filed them. Rule for the calls: active = growth percent below 10; inactive = the rest.
Choose the fitting class; nothing outside yes (1) for active, no (0) for inactive is accepted.

Recorded results for 3 compounds are shown here.
### Prompt Just curious, what result did O=C(COCc1c(-c2ccccc2)no[n+]1[O-])Nc1ccc(C(=O)/C=C/c2ccc3c(c2)OCO3)cc1 get here?
### Response no (0)

### Prompt Just curious, what result did Cc1cc(=O)oc2cc(Oc3nc(-c4ccc(Cl)cc4)cn4c(-c5ccc(Cl)cc5)cnc34)ccc12 get here?
### Response no (0)

### Prompt Just curious, what result did O=C(/C=C/c1cc2ccccc2[nH]c1=O)/C=C/c1cc2ccccc2[nH]c1=O get here?
### Response no (0)

***
### Prompt Just curious, what result did O=C(O)c1cccnc1Br get here?
### Response no (0)

### Prompt Just curious, what result did CN1CCN(Cc2ccc(NC(=O)c3cncc(C#Cc4cncc5nccnc45)c3)cc2C(F)(F)F)CC1 get here?
### Response yes (1)

### Prompt Just curious, what result did COc1ccc(-n2c(C)nc3c(c(C)nn3-c3ccccc3)c2=O)cc1 get here?
### Response no (0)

### Prompt Just curious, what result did CCC(=O)Oc1ccc(/C(=C(\C)c2ccccc2)c2ccc(OCCN(CC)CC)cc2)cc1 get here?
### Response no (0)

### Prompt Just curious, what result did COc1ccc(-c2nc(Nc3cc(C)[nH]n3)c3ccccc3n2)cc1 get here?
### Response yes (1)

### Prompt Just curious, what result did CC1CN(C(C)C)C(=S)N(c2ccccc2)C1=O (stereo not given) get here?
### Response no (0)

### Prompt Just curious, what result did CCN(CC)CCCNc1cc(OC)cc2nc3cc(Cl)ccc3nc12 get here?
### Response yes (1)

Entry source: PubChem BioAssay (NCI)
